Data provenance is BindingDB's records for doi:10.1007/s10822-022-00478-x.

target: cAMP and cAMP-inhibited cGMP 3',5'-cyclic phosphodiesterase 10A (Homo sapiens)
Sequence (Q9Y233 as listed by the source): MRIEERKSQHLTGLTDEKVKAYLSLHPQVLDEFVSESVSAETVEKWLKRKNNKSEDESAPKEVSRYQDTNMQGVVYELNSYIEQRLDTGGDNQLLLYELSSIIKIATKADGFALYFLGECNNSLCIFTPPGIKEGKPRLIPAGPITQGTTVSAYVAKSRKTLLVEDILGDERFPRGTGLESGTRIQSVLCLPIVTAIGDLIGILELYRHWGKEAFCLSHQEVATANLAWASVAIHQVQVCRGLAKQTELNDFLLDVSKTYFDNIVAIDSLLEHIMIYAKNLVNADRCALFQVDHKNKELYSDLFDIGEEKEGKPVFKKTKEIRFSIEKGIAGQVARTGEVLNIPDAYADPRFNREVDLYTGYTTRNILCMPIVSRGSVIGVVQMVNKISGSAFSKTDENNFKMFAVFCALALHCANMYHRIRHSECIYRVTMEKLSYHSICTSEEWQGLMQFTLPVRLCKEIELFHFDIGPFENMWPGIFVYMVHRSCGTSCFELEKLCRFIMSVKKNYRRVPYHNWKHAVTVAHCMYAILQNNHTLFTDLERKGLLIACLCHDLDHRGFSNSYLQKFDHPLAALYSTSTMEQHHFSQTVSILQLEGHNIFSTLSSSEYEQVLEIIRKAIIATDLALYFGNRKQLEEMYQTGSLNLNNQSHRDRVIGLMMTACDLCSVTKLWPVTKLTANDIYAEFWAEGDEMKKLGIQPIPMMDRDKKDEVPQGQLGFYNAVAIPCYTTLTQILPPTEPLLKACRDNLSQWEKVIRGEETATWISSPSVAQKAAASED
Entries annotated with measured IC50
A number alone suffices; assume nM.

// worked examples, IC50 included
{"compound": "Cn1ncc(C(=O)N2CCC2)c1C(=O)Nc1ccnn1-c1ccccn1 [Roche-Dataset for PDE10A, Compound 1024]", "measured-metric": "IC50", "reported-value": 130}
{"compound": "O=C(Nc1ccn2nc(-c3ccccc3)nc2c1)c1cc(Cl)ccn1 [Roche-Dataset for PDE10A, Compound 454]", "measured-metric": "IC50", "reported-value": 76}

Please look at the following compound next.
Incoming: Report IC50 for CN(C)C(=O)Cc1cccc(NC(=O)c2nc(C3CC3)cnc2Nc2cncnc2)c1 [Roche-Dataset for PDE10A, Compound 693] tested on cAMP and cAMP-inhibited cGMP 3',5'-cyclic phosphodiesterase 10A (Homo sapiens).
Outgoing: 97
